- System name: UniProtKB P28593
- Sequence (P28593 whole entry, looked up): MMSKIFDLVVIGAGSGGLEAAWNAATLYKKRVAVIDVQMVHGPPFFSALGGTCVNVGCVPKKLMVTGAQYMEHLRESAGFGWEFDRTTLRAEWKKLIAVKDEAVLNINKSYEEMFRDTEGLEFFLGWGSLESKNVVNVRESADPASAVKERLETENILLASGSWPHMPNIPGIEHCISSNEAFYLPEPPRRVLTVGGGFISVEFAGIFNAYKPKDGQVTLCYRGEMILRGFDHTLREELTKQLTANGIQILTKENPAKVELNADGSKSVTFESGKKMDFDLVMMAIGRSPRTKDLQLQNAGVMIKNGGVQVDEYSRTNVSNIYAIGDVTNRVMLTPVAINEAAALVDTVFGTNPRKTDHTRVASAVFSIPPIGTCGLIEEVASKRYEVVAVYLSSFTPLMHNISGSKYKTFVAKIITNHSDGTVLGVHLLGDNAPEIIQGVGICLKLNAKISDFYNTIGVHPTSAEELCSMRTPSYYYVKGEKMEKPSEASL
- Protocol description: Inhibition of Trypanosoma cruzi trypanothione reductase assessed as volume activity per min at 100 uM in presence of NADPH
Property: deltaA
// keep it numeric: no unit symbol after the value

{"Compound": "O=S(=O)(/C=C/c1ccc2c(c1)no[n+]2[O-])c1ccccc1", "deltaA": 0.101}
{"Compound": "O=S(=O)(/C=C\\c1ccc2c(c1)no[n+]2[O-])c1ccccc1", "deltaA": 0.097}
{"Compound": "[O-][n+]1onc2cc(/C=C\\[S+]([O-])c3ccccc3)ccc21 (centres undefined)", "deltaA": 0.107}

// next item, deltaA requested
q: Recorded deltaA of [O-][n+]1onc2cc(/C=C/[S+]([O-])c3ccccc3)ccc21 (centres undefined) , please.
a: 0.103

* * *

- Protocol description: Selectivity index, ratio of IC50 for human THP1 cells to IC50 for Trypanosoma cruzi Tulahuen 2
- Assay type: functional, THP-1
A collection of molecules and their measured Ratio IC50
// keep it numeric: no unit symbol after the value

Illustrative cases are given below, each with its answer.
{"Molecule": "CC(=O)N1CCN(c2ccc(OCC3COC(Cn4ccnc4)(c4ccc(Cl)cc4Cl)O3)cc2)CC1 (stereo not given) [KETOCONAZOLE]", "Result value": 4.4}
{"Molecule": "[O-][n+]1onc2cc(/C=C/c3ccccc3)ccc21", "Result value": 10.2}
{"Molecule": "[O-][n+]1onc2cc(/C=C\\[S+]([O-])c3ccccc3)ccc21 (stereo not given)", "Result value": 150}
{"Molecule": "O=S(=O)(/C=C\\c1ccc2c(c1)no[n+]2[O-])c1ccccc1", "Result value": 99.1}
{"Molecule": "O=S(=O)(/C=C/c1ccc2c(c1)no[n+]2[O-])c1ccccc1", "Result value": 255.6}

q: Recorded Ratio IC50 of [O-][n+]1onc2cc(/C=C\c3ccccc3)ccc21 , please.
a: 8.9

q: CN(C/C=C/C#CC(C)(C)C)Cc1cccc2ccccc12 [TERBINAFINE] , same question.
a: 19.3

q: [O-][n+]1onc2cc(/C=C/[S+]([O-])c3ccccc3)ccc21 (stereo not given) , same question.
a: 47.7

q: C=CS(=O)(=O)Cc1ccc2c(c1)no[n+]2[O-] , same question.
a: 18.8

* * *

- System name: Cruzipain (Trypanosoma cruzi)
- Protocol description: Inhibition of Trypanosoma cruzi Tulahuen 2 cruzipain at 10 uM
A collection of molecules and their measured inhibition
Use % as the unit, but write only the number.

Illustrative cases are given below, each with its answer.
{"Molecule": "O=S(=O)(/C=C\\c1ccc2c(c1)no[n+]2[O-])c1ccccc1", "System name": "Cruzipain (Trypanosoma cruzi)", "Property": "inhibition", "Result value": 2}
{"Molecule": "O=S(=O)(/C=C/c1ccc2c(c1)no[n+]2[O-])c1ccccc1", "System name": "Cruzipain (Trypanosoma cruzi)", "Property": "inhibition", "Result value": 0}
{"Molecule": "[O-][n+]1onc2cc(/C=C/Sc3ccccc3)ccc21", "System name": "Cruzipain (Trypanosoma cruzi)", "Property": "inhibition", "Result value": 0}
{"Molecule": "[O-][n+]1onc2cc(/C=C/c3ccccc3)ccc21", "System name": "Cruzipain (Trypanosoma cruzi)", "Property": "inhibition", "Result value": 12}
{"Molecule": "[O-][n+]1onc2cc(/C=C\\c3ccccc3)ccc21", "System name": "Cruzipain (Trypanosoma cruzi)", "Property": "inhibition", "Result value": 19}

q: Recorded inhibition of CC(C)C[C@H](NC(=O)[C@H]1O[C@@H]1C(=O)O)C(=O)NCCCCN=C(N)N , please.
a: 100

q: [O-][n+]1onc2cc(/C=C\[S+]([O-])c3ccccc3)ccc21 (stereo not drawn) , same question.
a: 0

q: [O-][n+]1onc2cc(/C=C/[S+]([O-])c3ccccc3)ccc21 (stereo not drawn) , same question.
a: 2
